Reference source for all entries: ChEMBL document CHEMBL4513216

Below, each entry is listed with its recorded cytotoxicity at 10 µM.
Test: Toxicity liver stage against HepG2, at 10uM
Type: cell-based
Set-up: test concentration 10 uM, cell line HepG2-A16-CD81EGFP
Settings: human, HepG2-A16-CD81EGFP cells; read-out: INHIBITION

COMPOUND: COc1ccccc1NC(=O)c1cc2c([nH]c1=O)CCCC2=O
cytotoxicity at 10 µM / %: -4.14
//
COMPOUND: O=c1[nH]nc2nc(N3CCOCC3)ccn12
cytotoxicity at 10 µM / %: -5.08
//
COMPOUND: CCOc1cccc(CNC(=O)C(C)(C)C#N)c1OC(F)F
cytotoxicity at 10 µM / %: -45.5
//
COMPOUND: COc1c(CNC2CCCOc3ccc(F)cc32)c(C)nn1C (stereo unspecified)
cytotoxicity at 10 µM / %: 1.51
//
COMPOUND: c1coc(-c2noc(CN3CC(n4cccn4)C3)n2)c1
cytotoxicity at 10 µM / %: 2.96
//
COMPOUND: O=C1[C@H]2CN(S(=O)(=O)c3cccs3)C[C@H]2CN1CC1CC1
cytotoxicity at 10 µM / %: 2
//
COMPOUND: CC(C)COC(=O)N1CC(=O)N(CCc2ccccc2)CC(O)C1 (stereo unspecified)
cytotoxicity at 10 µM / %: -16.6
//
COMPOUND: O=C([C@@H]1CC[C@@H]2[C@@H](CCN2Cc2cccc(F)c2)O1)N1CCCCO1
cytotoxicity at 10 µM / %: -6.71
//
COMPOUND: CS(=O)(=O)N1CCN(Cc2cccs2)CC(C(N)=O)C1 (stereo unspecified)
cytotoxicity at 10 µM / %: 18
//
COMPOUND: CCn1cc(NC(=O)NC2CCCc3c2cnn3CCO)cn1 (stereo unspecified)
cytotoxicity at 10 µM / %: 5.04
//
COMPOUND: O=C(c1ccoc1)N1CC[C@H]2C[C@@H](c3nnc(C4CC4)o3)O[C@@H]2C1
cytotoxicity at 10 µM / %: -101

----------
Experiment: Toxicity liver stage against HepG2, at 10uM
Assay type: cell-based
Parameters: test concentration 10 uM, cell line HepG2-A16-CD81EGFP
Conditions: human, HepG2-A16-CD81EGFP cells; read-out: INHIBITION
MEASUREMENT NAME: cytotoxicity at 10 µM (%)

MOLECULE: NC(=O)C1CN(C(=O)Nc2ccccc2Oc2ccccc2Cl)CCO1 (centres undefined)
MEASUREMENT NAME: cytotoxicity at 10 µM
MEASURED VALUE: -10.5
//
MOLECULE: CCc1ccc(CN(Cc2ccco2)C(C)C(C)C)nc1 (centres undefined)
MEASUREMENT NAME: cytotoxicity at 10 µM
MEASURED VALUE: -13.5
//
MOLECULE: Cc1noc(C)c1-c1ccc(C2CCCN2C(=O)c2cccnc2)nc1 (centres undefined)
MEASUREMENT NAME: cytotoxicity at 10 µM
MEASURED VALUE: 4.7
//
MOLECULE: c1cnc(NCc2cncc3c2CCN(Cc2ccsc2)C3)nc1
MEASUREMENT NAME: cytotoxicity at 10 µM
MEASURED VALUE: -74.4
//
MOLECULE: Cc1oc2nc[nH]c(=O)c2c1C(=O)N1CCCC(n2cccn2)C1 (centres undefined)
MEASUREMENT NAME: cytotoxicity at 10 µM
MEASURED VALUE: -0.513
//
MOLECULE: COC(=O)c1cc2c(=O)n(C3CCCC3)ccc2nc1C
MEASUREMENT NAME: cytotoxicity at 10 µM
MEASURED VALUE: -43.9
//
MOLECULE: COCC(NC(=O)c1cc(NC(C)=O)ccc1Cl)c1ccnn1C (centres undefined)
MEASUREMENT NAME: cytotoxicity at 10 µM
MEASURED VALUE: -2.22
//
MOLECULE: C[C@@H]1C(=O)NC[C@H]2CN(CCc3ccccc3)C[C@H]21
MEASUREMENT NAME: cytotoxicity at 10 µM
MEASURED VALUE: 5.45
//
MOLECULE: N#Cc1c(F)cccc1N1CCC(NS(=O)(=O)c2cccs2)CC1
MEASUREMENT NAME: cytotoxicity at 10 µM
MEASURED VALUE: -7.39
//
MOLECULE: CC(C)n1ncc2cc(NC(=O)N3CCC(CO)CC3)cnc21
MEASUREMENT NAME: cytotoxicity at 10 µM
MEASURED VALUE: -14.5
//
MOLECULE: CC(C)Nc1nc(O)cc(C(C)n2ncc3ccccc3c2=O)n1 (centres undefined)
MEASUREMENT NAME: cytotoxicity at 10 µM
MEASURED VALUE: 2.81
//
MOLECULE: Cn1cnc2c1C(COCC1CC1)CN(C(=O)c1ccsc1)C2 (centres undefined)
MEASUREMENT NAME: cytotoxicity at 10 µM
MEASURED VALUE: 4.73
//
MOLECULE: C[C@@H]1CN(C2(C(=O)N(C)C)Cc3ccccc3C2)C[C@H](C)O1
MEASUREMENT NAME: cytotoxicity at 10 µM
MEASURED VALUE: -5.19
//
MOLECULE: O=C(NCc1cccnc1-n1cncn1)C1CC2(CCNCC2)CN1 (centres undefined)
MEASUREMENT NAME: cytotoxicity at 10 µM
MEASURED VALUE: 2.08
//
MOLECULE: O=C(c1csc(-c2cccs2)n1)N1CCN2CCCCC2C1 (centres undefined)
MEASUREMENT NAME: cytotoxicity at 10 µM
MEASURED VALUE: -3.04
//
MOLECULE: Cc1noc([C@@H]2C[C@H]3OCC[C@H]3N(S(=O)(=O)c3ccccc3)C2)n1
MEASUREMENT NAME: cytotoxicity at 10 µM
MEASURED VALUE: -126
//
MOLECULE: O=C1CCNc2ccc(F)cc2CN1Cc1ccco1
MEASUREMENT NAME: cytotoxicity at 10 µM
MEASURED VALUE: -1.36
//
MOLECULE: CCCc1n[nH]c(=O)n1[C@@H](CC)c1ccccc1
MEASUREMENT NAME: cytotoxicity at 10 µM
MEASURED VALUE: -5.22
//
MOLECULE: CN(C)CCNc1cc(-c2ncccc2Cl)c2cc[nH]c2n1
MEASUREMENT NAME: cytotoxicity at 10 µM
MEASURED VALUE: 8.45
//
MOLECULE: O=C(c1cc(-c2ccco2)cs1)N1CCOCC1
MEASUREMENT NAME: cytotoxicity at 10 µM
MEASURED VALUE: 4.81
//
MOLECULE: CC1CCCN(CCNC(=O)c2cncnc2C(C)C)C1 (centres undefined)
MEASUREMENT NAME: cytotoxicity at 10 µM
MEASURED VALUE: -10.6
//
MOLECULE: COCCNS(=O)(=O)c1cccc2c1CN(C(=O)c1cc(C)on1)CC2
MEASUREMENT NAME: cytotoxicity at 10 µM
MEASURED VALUE: 1.63
//
MOLECULE: CC1(c2[nH]ncc2C(N)=O)CCN(c2ncccn2)CC1
MEASUREMENT NAME: cytotoxicity at 10 µM
MEASURED VALUE: 0.462
//
MOLECULE: c1cnc(NC2COC3(CCN(Cc4ccoc4)CC3)C2)nc1 (centres undefined)
MEASUREMENT NAME: cytotoxicity at 10 µM
MEASURED VALUE: 2.11

----------
Experiment: Toxicity liver stage against HepG2, at 10uM
Assay type: cell-based
Parameters: test concentration 10 uM, cell line HepG2-A16-CD81EGFP
Details: human, HepG2-A16-CD81EGFP cells; read-out: INHIBITION
Below, each entry is listed with its recorded cytotoxicity at 10 µM.

COMPOUND: CC1(C)Cc2ccc(C(=O)NC3CCS(=O)(=O)C3)c(O)c2O1 (centres undefined)
cytotoxicity at 10 µM, %: 0.329
//
COMPOUND: Cc1ccc(-c2nc(CC(=O)NCC(C)N3CCOCC3)cs2)o1 (centres undefined)
cytotoxicity at 10 µM, %: -47.5
//
COMPOUND: O=C(Nc1cccc(-c2cscn2)c1)N1CCC2(CC1)CC(O)CO2 (centres undefined)
cytotoxicity at 10 µM, %: -3.13
//
COMPOUND: Cc1nc(C)c(CC(=O)NCc2ccc(F)cc2)s1
cytotoxicity at 10 µM, %: 8.05
//
COMPOUND: Cc1ccc(-c2nc(CN3CCN(CCO)CC3)co2)cc1
cytotoxicity at 10 µM, %: -23.7
//
COMPOUND: CC(Cn1cccn1)NC(=O)NCc1ccoc1 (centres undefined)
cytotoxicity at 10 µM, %: 8.59
//
COMPOUND: Cc1occc1CN(C)Cc1nc2c(cnn2C)c(=O)[nH]1
cytotoxicity at 10 µM, %: 2.11
//
COMPOUND: O=C(Cn1c(=O)n(Cc2ccco2)c2ncccc21)NC1CCCCC1
cytotoxicity at 10 µM, %: 4.73
//
COMPOUND: COc1ccc2c(c1)OCC(Cc1ccc(N(C)C)nc1)C2 (centres undefined)
cytotoxicity at 10 µM, %: 2.77
//
COMPOUND: Cc1ncsc1C(=O)NCCSCc1cccs1
cytotoxicity at 10 µM, %: -2.11
//
COMPOUND: O=C(NCc1ccncc1)N(Cc1ccccc1F)C1CC1
cytotoxicity at 10 µM, %: -3.32
//
COMPOUND: COc1ccccc1NC(=O)C1(c2ccccc2)CCOCC1
cytotoxicity at 10 µM, %: 7.59
//
COMPOUND: CC(C(=O)NCc1cccs1)N1CCN(Cc2nccn2C)CC1 (centres undefined)
cytotoxicity at 10 µM, %: -14.5
//
COMPOUND: CC(C)c1ccc(S(=O)(=O)Cc2nc(N)nc(N(C)C)n2)cc1
cytotoxicity at 10 µM, %: -11.1
//
COMPOUND: Cc1ccc(S(=O)(=O)NCCc2cccnc2)cc1C
cytotoxicity at 10 µM, %: 0.645
//
COMPOUND: COC(=O)C(C)NC(=O)CSCc1nc(O)c2cc(C(C)C)sc2n1 (centres undefined)
cytotoxicity at 10 µM, %: 10.2
//
COMPOUND: CC(=O)N1C[C@@H](F)[C@@H](OCc2nc3ccc(C#N)cc3[nH]2)C1
cytotoxicity at 10 µM, %: -0.302
//
COMPOUND: O=C(CN1CCN(c2ccnc3c(F)ccc(F)c23)CC1)NC1CC1
cytotoxicity at 10 µM, %: -1.12
//
COMPOUND: CC(C)CNC(=O)C1=NOC2(CCN(Cc3ccoc3)C2)C1 (centres undefined)
cytotoxicity at 10 µM, %: -3.42
//
COMPOUND: CC(C)(C)NC(=O)C1CSCN1S(=O)(=O)c1cccc(F)c1 (centres undefined)
cytotoxicity at 10 µM, %: -16.7
//
COMPOUND: c1coc(CNc2nnc(Cc3ccsc3)o2)c1
cytotoxicity at 10 µM, %: -2.28
//
COMPOUND: O=C(NCCN1CCCCC1CO)c1cc(-c2ccccc2)on1 (centres undefined)
cytotoxicity at 10 µM, %: -5.53
//
COMPOUND: O=C(CN1CCCCC1)N1CCC(c2cc(=O)n3c(n2)CCCCC3)C1 (centres undefined)
cytotoxicity at 10 µM, %: -32.5
//
COMPOUND: CCC(=O)c1ccc(OCC(=O)NC(C)Cc2cc(C)n[nH]2)cc1 (centres undefined)
cytotoxicity at 10 µM, %: -39.7
